# protocol-text: Tmax in tuberculosis patient at […], po administered for 7 days by HPLC
# Format: ADME, organism-based
# test-context: human, in vivo
readout: Tmax

1) COc1c(N2CCNC(C)C2)c(F)cc2c(=O)c(C(=O)O)cn(C3CC3)c12 (stereo unspecified) [GATIFLOXACIN]
8 h

* * *

# protocol-text: Clearance in tuberculosis patient at 1000 mg/day, po administered for 7 days measured after 24 hrs by HPLC
# Type: ADME, organism-based
# test-context: human, in vivo
readout: CL/F (mL/min)

1) C[C@H]1COc2c(N3CCN(C)CC3)c(F)cc3c(=O)c(C(=O)O)cn1c23.C[C@H]1COc2c(N3CCN(C)CC3)c(F)cc3c(=O)c(C(=O)O)cn1c23.O
79
